Hello, the source for this data is PubChem BioAssay (EPA / NIEHS), in case you need it.

- SYSTEM: Hepatocyte nuclear factor 6 (Homo sapiens) (UniProt Q9UBC0)
- Sequence (Q9UBC0 whole entry, looked up): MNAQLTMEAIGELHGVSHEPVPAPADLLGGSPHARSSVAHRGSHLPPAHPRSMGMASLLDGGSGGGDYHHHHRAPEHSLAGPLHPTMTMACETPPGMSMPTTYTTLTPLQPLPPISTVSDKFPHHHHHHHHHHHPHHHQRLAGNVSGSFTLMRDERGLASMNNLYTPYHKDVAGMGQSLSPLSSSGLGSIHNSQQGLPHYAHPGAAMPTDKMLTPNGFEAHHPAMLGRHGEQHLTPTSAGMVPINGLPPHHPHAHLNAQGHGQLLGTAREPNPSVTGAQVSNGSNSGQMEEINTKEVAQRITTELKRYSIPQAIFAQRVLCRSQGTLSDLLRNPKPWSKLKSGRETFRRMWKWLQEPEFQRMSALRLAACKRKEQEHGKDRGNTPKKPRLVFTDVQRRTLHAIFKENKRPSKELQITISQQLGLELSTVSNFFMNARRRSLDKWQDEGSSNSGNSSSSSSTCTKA
- ASSAY: ATG_HNF6_CIS: Attagene CIS-FACTORIAL HepG2 Assay for human Hepatocyte Nuclear Factor 6 (HNF6) (AID 2282952)
- CONDITION_CONTEXT: HepG2 Attagene cis-factorial HNF6 reporter transcription; actives raise or lower the signal
Activity calls are given as the source filed them. Rule for the calls: active = hit-call score of the fitted dose curve at least 0.9, where 1 is the maximum; inactive = score below 0.9.
Outcome codes: active, inactive

>>> print(df.to_string())
                                    compound                                    system  category_label
 0                           Clc1nc2ccccc2s1  Hepatocyte nuclear factor 6 (Homo sapiens) (UniProt Q9UBC0)        inactive
 1       Cc1cccc(N(C)C(=S)Oc2ccc3ccccc3c2)c1  Hepatocyte nuclear factor 6 (Homo sapiens) (UniProt Q9UBC0)        inactive
 2  CCCCC(CC)CCC(CC(C)C)OS(=O)(=O)O (stereo unspecified)  Hepatocyte nuclear factor 6 (Homo sapiens) (UniProt Q9UBC0)        inactive
 3                CC(=O)Nc1nnc(S(N)(=O)=O)s1  Hepatocyte nuclear factor 6 (Homo sapiens) (UniProt Q9UBC0)        inactive
 4                           OC1CCCCCCCCCCC1  Hepatocyte nuclear factor 6 (Homo sapiens) (UniProt Q9UBC0)        inactive
 5         CCCCCCCC[N+](C)(CCCCCCCC)CCCCCCCC  Hepatocyte nuclear factor 6 (Homo sapiens) (UniProt Q9UBC0)        inactive
 6  Nc1ncn([C@@H]2O[C@H](CO)[C@@H](O)[C@H]2O)c(=O)n1  Hepatocyte nuclear factor 6 (Homo sapiens) (UniProt Q9UBC0)        inactive
 7             C[Si](C)(CCCN)O[Si](C)(C)CCCN  Hepatocyte nuclear factor 6 (Homo sapiens) (UniProt Q9UBC0)        inactive
 8                  Cc1cc(=O)n(-c2ccccc2)n1C  Hepatocyte nuclear factor 6 (Homo sapiens) (UniProt Q9UBC0)        inactive
 9                    O=c1c2ccccc2oc2ccccc12  Hepatocyte nuclear factor 6 (Homo sapiens) (UniProt Q9UBC0)        inactive
10               C=CC(=O)NC(C)(C)CS(=O)(=O)O  Hepatocyte nuclear factor 6 (Homo sapiens) (UniProt Q9UBC0)        inactive
11         CCCCOCCOC(=O)COc1nc(Cl)c(Cl)cc1Cl  Hepatocyte nuclear factor 6 (Homo sapiens) (UniProt Q9UBC0)        inactive
12                                    CC=CCO  Hepatocyte nuclear factor 6 (Homo sapiens) (UniProt Q9UBC0)        inactive
13                          Nc1ccc(N)c(Cl)c1  Hepatocyte nuclear factor 6 (Homo sapiens) (UniProt Q9UBC0)          active
14                CC1=CC[C@H]2C[C@@H]1C2(C)C  Hepatocyte nuclear factor 6 (Homo sapiens) (UniProt Q9UBC0)        inactive
15                  O=[N+]([O-])C1(Br)COCOC1  Hepatocyte nuclear factor 6 (Homo sapiens) (UniProt Q9UBC0)        inactive
16                         C=CC(=O)OCCC(=O)O  Hepatocyte nuclear factor 6 (Homo sapiens) (UniProt Q9UBC0)        inactive
17      CCCC(C)CCC(C)=O (stereo unspecified)  Hepatocyte nuclear factor 6 (Homo sapiens) (UniProt Q9UBC0)        inactive
18                                c1c[nH]cn1  Hepatocyte nuclear factor 6 (Homo sapiens) (UniProt Q9UBC0)        inactive
19     CCCCCCCCc1ccc(Nc2ccc(CCCCCCCC)cc2)cc1  Hepatocyte nuclear factor 6 (Homo sapiens) (UniProt Q9UBC0)        inactive
20  C=CC(C)(CCC=C(C)C)OC(=O)CC(C)C (stereo unspecified)  Hepatocyte nuclear factor 6 (Homo sapiens) (UniProt Q9UBC0)        inactive
21                   CC=CC(=O)N(CC)c1ccccc1C  Hepatocyte nuclear factor 6 (Homo sapiens) (UniProt Q9UBC0)        inactive
22                              CNC(=S)N(C)C  Hepatocyte nuclear factor 6 (Homo sapiens) (UniProt Q9UBC0)        inactive
23   O=S(=O)(O)c1ccc2cc(O)c(S(=O)(=O)O)cc2c1  Hepatocyte nuclear factor 6 (Homo sapiens) (UniProt Q9UBC0)        inactive
24     CC(CC=O)c1ccccc1 (stereo unspecified)  Hepatocyte nuclear factor 6 (Homo sapiens) (UniProt Q9UBC0)        inactive
25                     Nc1ccc2cc3ccccc3cc2c1  Hepatocyte nuclear factor 6 (Homo sapiens) (UniProt Q9UBC0)        inactive
26                O=C(O)c1cc2ccccc2nc1C(=O)O  Hepatocyte nuclear factor 6 (Homo sapiens) (UniProt Q9UBC0)        inactive
27                                Cc1ccccc1C  Hepatocyte nuclear factor 6 (Homo sapiens) (UniProt Q9UBC0)        inactive
28        CC1=NC(C)OC1C (stereo unspecified)  Hepatocyte nuclear factor 6 (Homo sapiens) (UniProt Q9UBC0)        inactive
29                   Cc1ccc(OC(=O)CC(C)C)cc1  Hepatocyte nuclear factor 6 (Homo sapiens) (UniProt Q9UBC0)        inactive
30                Cc1ccc(N)c([N+](=O)[O-])c1  Hepatocyte nuclear factor 6 (Homo sapiens) (UniProt Q9UBC0)        inactive
